Entry source: ChEMBL document CHEMBL1156573

# experimental_system: Cannabinoid receptor 2 (Homo sapiens, UniProt P34972)
# Sequence (P34972 whole entry): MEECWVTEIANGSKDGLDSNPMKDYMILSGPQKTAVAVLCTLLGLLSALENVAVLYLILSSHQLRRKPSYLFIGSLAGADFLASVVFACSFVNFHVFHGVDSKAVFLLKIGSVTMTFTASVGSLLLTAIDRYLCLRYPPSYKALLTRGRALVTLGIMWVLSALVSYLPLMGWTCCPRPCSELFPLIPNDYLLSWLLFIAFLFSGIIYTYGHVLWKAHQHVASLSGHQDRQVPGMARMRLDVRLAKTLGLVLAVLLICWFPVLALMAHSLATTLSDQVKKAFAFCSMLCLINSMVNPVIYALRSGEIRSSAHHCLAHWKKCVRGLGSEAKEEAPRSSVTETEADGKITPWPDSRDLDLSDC
# procedure_summary: Displacement of [3H](R)-3-methyl-2-(3-(morpholinomethyl)-3,4-dihydro-2H-benzo[b][1,4]oxazin-5-yl)-1-(naphthalen-1-yl)but-2-en-1-one from human CB2 receptor expressed in CHO cells at 1 uM by liquid scintillation counting
# Format: cell-based
measurement_label: Activity

Worked examples follow.
Any idea what Activity was measured for `CCCCCCN1C(=O)/C(=N\NC(=O)c2ccc(OC)cc2)c2ccccc21` ?
56%

Any idea what Activity was measured for `CCCCCCN1C(=O)/C(=N\NC(=O)c2cc3ccccc3s2)c2ccccc21` ?
< 30%

Any idea what Activity was measured for `O=C(N/N=C1\C(=O)N(CCN2C(=O)c3ccccc3C2=O)c2ccccc21)c1ccccc1` ?
3%

Any idea what Activity was measured for `CCCCCCN1C(=O)/C(=N\NC(=O)c2ccccc2)c2cc(F)ccc21` ?
46%

Any idea what Activity was measured for `CCCCN1C(=O)/C(=N\NC(=O)c2ccccc2)c2ccccc21` ?
70%

Continuing:
Any idea what Activity was measured for `O=C(N/N=C1\C(=O)N(Cc2ccc(Cl)cc2)c2ccccc21)c1ccccc1` ?
22%

* * *

# experimental_system: Cannabinoid receptor 1 (Homo sapiens)
# procedure_summary: Displacement of [3H]CP-55940 from human CB1 receptor expressed in CHO cells at 1 uM by liquid scintillation counting
# Assay type: cell-based
Below, each entry is listed alongside its reported Activity.
Answer with a number only, understood to be in %.

Any idea what Activity was measured for `CCCCCCN1C(=O)/C(=N\NC(=O)c2ccccc2)c2cc(F)ccc21` ?
57

Any idea what Activity was measured for `CCCCCCN1C(=O)/C(=N\NC(=O)c2ccccc2)c2cc(Cl)ccc21` ?
9

Any idea what Activity was measured for `CCCCCCN1C(=O)/C(=N\NC(=O)c2ccc(OC)cc2)c2ccccc21` ?
81.7

* * *

# experimental_system: Cannabinoid receptor 2 (Homo sapiens, UniProt P34972)
# procedure_summary: Agonist activity at human CB2 receptor expressed in CHO cells by [35S]GTPgammaS assay relative to CP-55940
# Type: functional, cell-based
Note to self: class = bucket of Emax, per low band (below 40%), middle band (40% to below 60%), high band (60% or more)

Sample answers from the record:
Quick check: band for `CCCCCCN1C(=O)/C(=N\NC(=O)c2ccccc2)c2cc(F)ccc21`
low band

Quick check: band for `CCCCCCN1C(=O)/C(=N\NC(=O)c2ccccc2)c2cccc(C)c21`
low band

Quick check: band for `CCCCCCN1C(=O)/C(=N\NC(=O)OC(C)(C)C)c2ccccc21`
middle band

Quick check: band for `O=C(N/N=C1\C(=O)N(Cc2ccccc2)c2ccccc21)c1ccccc1`
high band

Quick check: band for `CCCCCCN1C(=O)/C(=N\NC(=O)c2ccccc2)c2cccc(Cl)c21`
high band

Continuing:
Quick check: band for `O=C(N/N=C1\C(=O)N(CCC2CCCCC2)c2ccccc21)c1ccccc1`
middle band

Quick check: band for `CCCCCCN1C(=O)/C(=N\NC(=O)c2ccc(OC)cc2)c2ccccc21`
middle band

Quick check: band for `CCCCCCN1C(=O)/C(=N\NC(=O)Cc2ccccc2)c2ccccc21`
middle band

Quick check: band for `CCCCN1C(=O)/C(=N\NC(=O)c2ccccc2)c2ccccc21`
high band

Quick check: band for `O=C(N/N=C1\C(=O)N(CC2CCCCC2)c2ccccc21)c1ccccc1`
high band

Quick check: band for `O=C(Cc1ccccc1)N/N=C1\C(=O)N(CCC2CCCCC2)c2ccccc21`
low band

Quick check: band for `CCCCCN1C(=O)/C(=N\NC(=O)c2ccccc2)c2ccccc21`
high band

Quick check: band for `CCCCCCN1C(=O)/C(=N\NC(=O)C2CCCCC2)c2ccccc21`
middle band

Quick check: band for `CCCCCCN1C(=O)/C(=N\NC(=O)c2ccccc2)c2ccccc21`
high band

Quick check: band for `CCCCCCN1C(=O)/C(=N\NC(=O)c2cccc3ccccc23)c2ccccc21`
low band
